Molecular target: Delta-type opioid receptor (Homo sapiens)
Assay: Displacement of [3H]DPDPE from human delta opioid receptor expressed in CHOK1 cells
ASSAY_METRIC: pKi
Answer as the number alone; pKi is minus log10 of concentration in mol/L.

• CC1(N2CCC(n3c(-c4cccc(C(F)(F)F)c4)nc4ccccc43)CC2)CCCCCCC1 = 7.24

What pKi value was documented for this molecule, CN1CCC[C@H](c2nc3ccccc3n2C2CCN(C3(C)CCCCCCC3)CC2)C1 ? 6.96

What do you have for CC1(N2CCC(n3c(-c4cccc(OCCO)c4)nc4ccccc43)CC2)CCCCCCC1 ? 8.02

Same again, this time with CC1(N2CCC(n3c(-c4cccc(CN)c4)nc4ccccc43)CC2)CCCCCCC1 6.85

Next entry: CC1(N2CCC(n3c([C@H]4CCCNC4)nc4ccccc43)CC2)CCCCCCC1 6.77

---

Biological target: Nociceptin receptor (Homo sapiens, UniProt P41146)
Sequence (P41146 whole entry): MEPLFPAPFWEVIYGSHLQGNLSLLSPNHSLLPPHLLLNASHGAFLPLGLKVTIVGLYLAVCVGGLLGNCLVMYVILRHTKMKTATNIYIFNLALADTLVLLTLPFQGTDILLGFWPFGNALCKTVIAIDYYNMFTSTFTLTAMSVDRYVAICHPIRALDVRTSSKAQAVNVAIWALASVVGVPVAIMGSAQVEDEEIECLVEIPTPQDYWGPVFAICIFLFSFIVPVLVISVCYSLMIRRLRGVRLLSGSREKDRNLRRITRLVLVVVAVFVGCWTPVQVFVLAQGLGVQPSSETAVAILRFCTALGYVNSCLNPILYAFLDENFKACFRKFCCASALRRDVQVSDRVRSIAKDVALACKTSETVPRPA
The reader will find reported pKi values listed item by item below.
// field semantics: pKi = negative decimal log of concentration (mol/L)

What measured pKi goes with CC1(N2CCC(n3c(-c4ccc5cc[nH]c5c4)nc4ccccc43)CC2)CCCCCCC1 ? 8.77

What about this compound? CN1CCC[C@@H](c2nc3ccccc3n2C2CCN(C3(C)CCCCCCC3)CC2)C1 9.70

CC1(N2CCC(n3c(-c4cccc(OCCO)c4)nc4ccccc43)CC2)CCCCCCC1 ? 9.52

Queued: CC1(N2CCC(n3c(-c4cccc(C(F)(F)F)c4)nc4ccccc43)CC2)CCCCCCC1 9.20

Try this compound too: CC1(N2CCC(n3c(-c4cccc(S(C)(=O)=O)c4)nc4ccccc43)CC2)CCCCCCC1 9.82

Again, but for CC1(N2CCC(n3c(-c4cc5ccccc5o4)nc4ccccc43)CC2)CCCCCCC1 9.28

# repeat for CN1CCC[C@H](c2nc3ccccc3n2C2CCN(C3(C)CCCCCCC3)CC2)C1 9.62

---

Below, each entry is listed with its recorded Ki.
Biological target: Kappa-type opioid receptor (Homo sapiens)
Sequence (P41145 whole entry): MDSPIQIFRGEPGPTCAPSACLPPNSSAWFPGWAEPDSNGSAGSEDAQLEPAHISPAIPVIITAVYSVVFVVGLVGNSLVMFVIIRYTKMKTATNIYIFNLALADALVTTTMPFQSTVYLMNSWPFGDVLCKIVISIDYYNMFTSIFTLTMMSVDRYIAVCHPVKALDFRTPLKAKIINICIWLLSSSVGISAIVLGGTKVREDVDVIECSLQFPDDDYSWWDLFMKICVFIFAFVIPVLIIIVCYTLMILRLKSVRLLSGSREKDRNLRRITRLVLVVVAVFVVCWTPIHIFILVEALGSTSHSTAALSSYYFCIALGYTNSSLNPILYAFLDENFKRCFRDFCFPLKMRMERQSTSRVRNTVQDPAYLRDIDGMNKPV
Kindly provide the numeric value in nM only, without the unit symbol.

Record excerpt, results attached:
• CC1(N2CCC(n3c([C@@H]4CCCNC4)nc4ccccc43)CC2)CCCCCCC1 = 23.1
• CC1CN(c2nc3ccccc3n2C2CCN(C3(C)CCCCCCC3)CC2)CC(C)N1 (stereo not drawn) = 15

Quick check: Ki of CN1CCC[C@@H](c2nc3ccccc3n2C2CCN(C3(C)CCCCCCC3)CC2)C1 ? 25

---

Tested on: Mus musculus
Assay: Ex vivo receptor occupancy of NOP receptor in ddY mouse brain at 10 mg/kg, po after 1 hr by [3H]N/OFQ binding assay
Type: functional
Lab note: anything with Activity below 30% is marked TRUE; values at 30% or higher are marked FALSE.

Just wondering, is Activity of CC1(N2CCC(n3c([C@@H]4CCCNC4)nc4ccccc43)CC2)CCCCCCC1 below 30%? FALSE

Follow-up item: CC1(N2CCC(n3c(-c4cccc(S(C)(=O)=O)c4)nc4ccccc43)CC2)CCCCCCC1 FALSE

Another compound: CN1CCC[C@@H](c2nc3ccccc3n2C2CCN(C3(C)CCCCCCC3)CC2)C1 FALSE

What would you report for CC1(N2CCC(n3c(-c4ccc5cc[nH]c5c4)nc4ccccc43)CC2)CCCCCCC1 ? TRUE

---

Biological target: Mu-type opioid receptor (Homo sapiens, UniProt P35372)
Sequence (P35372 whole entry): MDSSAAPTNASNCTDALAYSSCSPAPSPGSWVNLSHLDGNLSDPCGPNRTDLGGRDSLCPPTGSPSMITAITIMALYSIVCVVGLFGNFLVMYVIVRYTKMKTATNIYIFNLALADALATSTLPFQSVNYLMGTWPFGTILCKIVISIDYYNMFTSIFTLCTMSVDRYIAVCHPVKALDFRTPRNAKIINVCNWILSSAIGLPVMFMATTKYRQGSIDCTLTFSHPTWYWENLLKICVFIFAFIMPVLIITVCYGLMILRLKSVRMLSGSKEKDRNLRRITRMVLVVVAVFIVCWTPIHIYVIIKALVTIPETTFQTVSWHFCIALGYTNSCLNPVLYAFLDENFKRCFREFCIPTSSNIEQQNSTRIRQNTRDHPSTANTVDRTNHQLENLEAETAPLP
Examples of compounds with documented Ki follow.
Reply with the number and its unit after it.

Which Ki is listed for CC1(N2CCC(n3c(-c4cccc(S(C)(=O)=O)c4)nc4ccccc43)CC2)CCCCCCC1 ? 6.3 nM

---

Biological target: Kappa-type opioid receptor (Homo sapiens)
pKi values for the compounds below.
// pKi here means minus log10 of the molar concentration (mol/L)

# example entries with known answers
• CC1(N2CCC(n3c(-c4cccc(C(F)(F)F)c4)nc4ccccc43)CC2)CCCCCCC1 = 6.45
• CC1(N2CCC(n3c(-c4cccc(OCCO)c4)nc4ccccc43)CC2)CCCCCCC1 = 7.37
• CN1CCC[C@H](c2nc3ccccc3n2C2CCN(C3(C)CCCCCCC3)CC2)C1 = 8.00
• CC1(N2CCC(n3c([C@H]4CCCNC4)nc4ccccc43)CC2)CCCCCCC1 = 8.04

Could you share which pKi value was measured for CC1(N2CCC(n3c(-c4cccc(CN)c4)nc4ccccc43)CC2)CCCCCCC1 ? 7.14

---

Target: Delta-type opioid receptor (Homo sapiens, UniProt P41143)
Sequence (P41143 whole entry): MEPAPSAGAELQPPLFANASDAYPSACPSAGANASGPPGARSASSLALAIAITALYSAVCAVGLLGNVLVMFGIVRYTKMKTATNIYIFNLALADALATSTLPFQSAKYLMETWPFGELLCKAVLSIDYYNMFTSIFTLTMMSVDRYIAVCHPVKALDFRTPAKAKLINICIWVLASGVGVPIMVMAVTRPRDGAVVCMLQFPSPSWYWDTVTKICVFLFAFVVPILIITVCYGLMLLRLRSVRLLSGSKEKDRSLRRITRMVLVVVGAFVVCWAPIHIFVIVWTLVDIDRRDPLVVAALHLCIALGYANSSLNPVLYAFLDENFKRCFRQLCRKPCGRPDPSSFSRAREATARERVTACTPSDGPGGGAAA
Assay: Agonist activity at human delta opioid receptor expressed in CHOK1 cells by [35S]GTPgammaS binding
A collection of compounds and their measured EC50
Give the value, in units of nM, as a plain number.

- CC1(N2CCC(n3c([C@@H]4CCCNC4)nc4ccccc43)CC2)CCCCCCC1: 4700
- CC1(N2CCC(n3c([C@H]4CCCNC4)nc4ccccc43)CC2)CCCCCCC1: 514
- CN1CCC[C@@H](c2nc3ccccc3n2C2CCN(C3(C)CCCCCCC3)CC2)C1: 2190

Now look at this one.
// EC50 lookup, key: CN1CCC[C@H](c2nc3ccccc3n2C2CCN(C3(C)CCCCCCC3)CC2)C1 389

---

Biological target: Nociceptin receptor (Homo sapiens)
Assay: Agonist activity at human NOP receptor expressed in HEK293 cells by [35S]GTPgammaS binding
ASSAY_METRIC: EC50 (nM)
Note: unit nM is implicit; provide only the numeric part.

Past entries and their recorded results:
• CC1(N2CCC(n3c(-c4cccc(C(F)(F)F)c4)nc4ccccc43)CC2)CCCCCCC1 = 5.7
• CN1CCC[C@H](c2nc3ccccc3n2C2CCN(C3(C)CCCCCCC3)CC2)C1 = 1.6
• CC1(N2CCC(n3c(-c4cc5ccccc5o4)nc4ccccc43)CC2)CCCCCCC1 = 3.1
• CC1(N2CCC(n3c(-c4cccc(OCCO)c4)nc4ccccc43)CC2)CCCCCCC1 = 2.6
• CC1(N2CCC(n3c(-c4cccc(S(C)(=O)=O)c4)nc4ccccc43)CC2)CCCCCCC1 = 1.6
• CC1(N2CCC(n3c(-c4ccc5cc[nH]c5c4)nc4ccccc43)CC2)CCCCCCC1 = 13

Now take the following compound into account.
# query: EC50 | item CN1CCC[C@@H](c2nc3ccccc3n2C2CCN(C3(C)CCCCCCC3)CC2)C1 | system: Nociceptin receptor (Homo sapiens) 1.4

---

Tested on: Mus musculus
Assay: Ex vivo receptor occupancy of NOP receptor in ddY mouse brain at 10 mg/kg, po after 1 hr by [3H]N/OFQ binding assay
Assay type: functional
Recorded measurements of Activity, one per entry

• CC1(N2CCC(n3c(-c4cccc(C(F)(F)F)c4)nc4ccccc43)CC2)CCCCCCC1 = 3.2%
• CC1(N2CCC(n3c(-c4cc5ccccc5o4)nc4ccccc43)CC2)CCCCCCC1 = 34%
• CC1(N2CCC(n3c(-c4cccc(CN)c4)nc4ccccc43)CC2)CCCCCCC1 = 30%
• CC1(N2CCC(n3c(-c4cccc(OCCO)c4)nc4ccccc43)CC2)CCCCCCC1 = 38%

Continue with the next compound.
Name the reported Activity value associated with the compound CC1(N2CCC(n3c(-c4ccc(F)c(Cl)c4)nc4ccccc43)CC2)CCCCCCC1 31%

---

# collection of pKi values tested on Mu-type opioid receptor (Homo sapiens)
// pKi: -log10(molar conc.)

If you can, please state the reported pKi value of CN1CCC[C@H](c2nc3ccccc3n2C2CCN(C3(C)CCCCCCC3)CC2)C1 . 7.96

---

Molecular target: Mu-type opioid receptor (Homo sapiens)
Assay: Displacement of [3H]DAMGO from human mu opioid receptor expressed in CHOK1 cells
Format: cell-based, CHO-K1
ASSAY_METRIC: pKi
Please express pKi as -log10 of the molar concentration.

* CC1(N2CCC(n3c(-c4cc5ccccc5o4)nc4ccccc43)CC2)CCCCCCC1 | 6.99
* CC1(N2CCC(n3cnc4ccccc43)CC2)CCCCCCC1 | 7.96
* CC1(N2CCC(n3c(-c4ccc5cc[nH]c5c4)nc4ccccc43)CC2)CCCCCCC1 | 6.82
* CC1CN(c2nc3ccccc3n2C2CCN(C3(C)CCCCCCC3)CC2)CC(C)N1 (centres undefined) | 7.68
* CC1(N2CCC(n3c(-c4cccc(C(F)(F)F)c4)nc4ccccc43)CC2)CCCCCCC1 | 7.19

Item CC1(N2CCC(n3c(-c4ccc(F)c(Cl)c4)nc4ccccc43)CC2)CCCCCCC1 with Mu-type opioid receptor (Homo sapiens) - pKi? 7.35

Now consider CC1(N2CCC(n3c(-c4cccc(CN)c4)nc4ccccc43)CC2)CCCCCCC1 and answer again. 7.70

What do you get for CN1CCC[C@@H](c2nc3ccccc3n2C2CCN(C3(C)CCCCCCC3)CC2)C1 ? 8.43

Entry CC1(N2CCC(n3c(-c4cccc(OCCO)c4)nc4ccccc43)CC2)CCCCCCC1 please 7.96
